- tested system: HNRNPA1 (UniProt P09651)
- Sequence (P09651 whole entry): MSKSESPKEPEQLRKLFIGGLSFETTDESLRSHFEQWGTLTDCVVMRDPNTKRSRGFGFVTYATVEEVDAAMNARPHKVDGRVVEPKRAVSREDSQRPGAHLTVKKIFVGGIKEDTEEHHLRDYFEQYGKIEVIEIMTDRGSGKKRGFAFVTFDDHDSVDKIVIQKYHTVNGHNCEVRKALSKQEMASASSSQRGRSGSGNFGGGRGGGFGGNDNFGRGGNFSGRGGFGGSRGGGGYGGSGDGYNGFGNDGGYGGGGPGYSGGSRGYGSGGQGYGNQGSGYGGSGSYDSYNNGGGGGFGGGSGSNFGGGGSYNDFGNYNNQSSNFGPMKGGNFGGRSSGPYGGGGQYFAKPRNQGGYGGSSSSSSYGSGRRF
- measurement protocol: EC50 of free RNA motif oligo competing protein binding to immobilised probe
value type: EC50 (nM)

# sequence data, data value
records = [
    ("UAUUUAU", 2950),
]

* * *

- tested system: RPS28 (UniProt P62857)
- measurement protocol: Kd (EC50 corrected by depletion factor)
pKd: −log10 of the molar value.

# sequence data, tested system, pKd
rows = [
    ("CUGUCCU", "RPS28 (UniProt P62857)", 6.94),
]

* * *

- tested system: HNRNPK (UniProt P61978)
- measurement protocol: Kd (EC50 corrected by depletion factor)

# sequence data, value units, Kd
data = [
    ("CUGUCCU", "µM", 1.63),
]
